- TESTED_SYSTEM: Human DYRK1A (Homo sapiens, UniProt Q13627)
- Construct: purchased Invitrogen PV3997
- ASSAY_PROTOCOL: DYRK1A Kinase TR-FRET (IMAP-Tb) Assay
- Type: biochemical
- SETTINGS: 10 μM test compound; reported where IC50 was not determined; read-out: Enzyme DYRK1A % inhibition at 10 μM test compound concentration
Use satisfied when the recorded inhibition at 10 µM is no lower than 40%; use not satisfied when it is lower.

{"columns": ["MOLECULE", "GROUP"],
 "data": [
  ["COC(=O)c1ccc(Cl)c(NC(=O)c2cc3cc(OC)c(OC)cc3[nH]c2=O)c1", "satisfied"],
  ["COCCOc1cc2cc(C(=O)Nc3cc(-c4nnn[nH]4)ccc3C)c(=O)[nH]c2cc1OCCOC", "satisfied"],
  ["COc1cc2cc(C(=O)Nc3cc(C(=O)NC(CO)C(C)C)ccc3C)c(=O)[nH]c2cc1OC (stereo not drawn)", "not satisfied"],
  ["COc1cc2c(cc1OC)NC(=O)C(C(=O)Nc1cc(C(=O)NCc3ccccc3)ccc1C)C2 (stereo not drawn)", "not satisfied"]
]}

Read the next record carefully.
input: // inclusive: inhibition at 10 µM at least 40%? input: COc1cc2cc(C(=O)Nc3cc(C(=O)N[C@@H](CO)c4ccccc4)ccc3C)c(=O)[nH]c2cc1OC
output: not satisfied
